# System: purified A/PR/8/34
No end group written: not given here.
Hi! Could you tag entries with EC50 below 3 µM as condition met, and those at or above as condition not met? Much appreciated.

RRKKAAVALLPAVLLA [SEQ. ID. NO: 5, RRKKAAVALLPAVLLA] : condition met
RRKKVLLALLAP [SEQ. ID. NO: 23, RRKKVLLALLAP] : condition not met
RRKKVALLAVLLALLA [SEQ. ID. NO: 32, RRKKVALLAVLLALLA] : condition met

Exam item: EC50 under 3 µM? Item: RRKKAAVALLPAVLLAL [SEQ. ID. NO: 4, RRKKAAVALLPAVLLAL]
Marked response: condition not met

Exam item: Now the sequence RRKKALLPAVLLALLAP [SEQ. ID. NO: 20, RRKKALLPAVLLALLAP]
Marked response: condition met

Exam item: Now give it for RRKKLLPAVLLALLAP [SEQ. ID. NO: 21, RRKKLLPAVLLALLAP] too.
Marked response: condition met

Exam item: Continue with RKKLAVLLALLA [SEQ ID NO: 50, RKKLAVLLALLA]
Marked response: condition not met
